FYI, the data here is from PubChem BioAssay AID2060883.

- System: 843782-103-R-J1-PDC complex spheroid viability
- test_protocol: Anticancer human tumor 843782-103-R-J1-PDC patient-derived lung adenocarcinoma cell line growth inhibition [RAS]; active = viability on the fitted dose curve at most 10% of control; inactive = the rest
- condition_details: second compound 0.3 µM; first compound 1 µM
Select the correct class. Options are active, inactive and nothing else.

Solved cases below.
| compound | label_class |
| --- | --- |
| CC1(O)CCCC1n1c(=O)c(C(F)F)cc2cnc(NC3CCN(S(C)(=O)=O)CC3)nc21 (centres undefined) + CCn1c(-c2cccnc2C(C)OC)c2c3cc(ccc31)N1CCOC(CC(NC(=O)C(C(C)C)N(C)C(=O)C3(F)CCN(C(=O)C#CC(C)(C)N(C)C)CC3)C(=O)N3CCCC(N3)C(=O)OCC(C)(C)C2)C1 | inactive |
| C[C@@H](NC(=O)c1ncnc(N)c1Cl)c1ncc(C(=O)Nc2cc(C(F)(F)F)c(Cl)cn2)s1 + CCn1c(-c2cc(N3CCN(C)CC3)cnc2C(C)OC)c2c3cc(ccc31)-c1csc(n1)CC(NC(=O)C1CC1C)C(=O)N1CCCC(N1)C(=O)OCC(C)(C)C2 | inactive |
| Cc1nc(N2CCC3(CC2)COC(C)C3N)c(CO)nc1Sc1ccnc(N)c1Cl (centres undefined) + CCn1c(-c2cccnc2C(C)OC)c2c3cc(ccc31)N1CCOC(CC(NC(=O)C(C(C)C)N(C)C(=O)C3(F)CCN(C(=O)C#CC(C)(C)N(C)C)CC3)C(=O)N3CCCC(N3)C(=O)OCC(C)(C)C2)C1 | inactive |
| CC(=O)OC12COC1CC(O)C1(C)C(=O)C(O)C3=C(C)C(OC(=O)C(O)C(NC(=O)OC(C)(C)C)c4ccccc4)CC(O)(C(OC(=O)c4ccccc4)C21)C3(C)C (centres undefined) + CCn1c(-c2cccnc2C(C)OC)c2c3cc(ccc31)N1CCOC(CC(NC(=O)C(C(C)C)N(C)C(=O)C3(F)CCN(C(=O)C#CC(C)(C)N(C)C)CC3)C(=O)N3CCCC(N3)C(=O)OCC(C)(C)C2)C1 | active |
| C=CC(=O)N1CCN(c2nc(OCC3CCCN3C)nc3c(F)c(-c4nc(N)cc(C)c4C(F)(F)F)c(Cl)cc23)C(C)C1 (centres undefined) + CCn1c(-c2cc(N3CCN(C)CC3)cnc2C(C)OC)c2c3cc(ccc31)-c1csc(n1)CC(NC(=O)C1CC1C)C(=O)N1CCCC(N1)C(=O)OCC(C)(C)C2 | inactive |
| CCN1CCN(Cc2ccc(Nc3ncc(F)c(-c4cc(F)c5nc(C)n(C(C)C)c5c4)n3)nc2)CC1 + CCn1c(-c2cccnc2C(C)OC)c2c3cc(ccc31)N1CCOC(CC(NC(=O)C(C(C)C)N(C)C(=O)C3(F)CCN(C(=O)C#CC(C)(C)N(C)C)CC3)C(=O)N3CCCC(N3)C(=O)OCC(C)(C)C2)C1 | inactive |

Kindly provide the recorded test outcome for the following compound: C=CC(=O)N1CCN(c2nc(OCC3CCCN3C)nc3c(F)c(-c4nc(N)cc(C)c4C(F)(F)F)c(Cl)cc23)C(C)C1 (centres undefined) + CCn1c(-c2cccnc2C(C)OC)c2c3cc(ccc31)N1CCOC(CC(NC(=O)C(C(C)C)N(C)C(=O)C3(F)CCN(C(=O)C#CC(C)(C)N(C)C)CC3)C(=O)N3CCCC(N3)C(=O)OCC(C)(C)C2)C1
inactive

Could you check what this test reported for Nc1ccn(C2OC(CO)C(O)C2(F)F)c(=O)n1 (centres undefined) + CCn1c(-c2cc(N3CCN(C)CC3)cnc2C(C)OC)c2c3cc(ccc31)-c1csc(n1)CC(NC(=O)C1CC1C)C(=O)N1CCCC(N1)C(=O)OCC(C)(C)C2 ?
active

What did this assay record as the result for C[C@@H](NC(=O)c1ncnc(N)c1Cl)c1ncc(C(=O)Nc2cc(C(F)(F)F)c(Cl)cn2)s1 + CCn1c(-c2cccnc2C(C)OC)c2c3cc(ccc31)N1CCOC(CC(NC(=O)C(C(C)C)N(C)C(=O)C3(F)CCN(C(=O)C#CC(C)(C)N(C)C)CC3)C(=O)N3CCCC(N3)C(=O)OCC(C)(C)C2)C1 ?
inactive

Could you please tell me the result logged for CC(=O)OC12COC1CC(O)C1(C)C(=O)C(O)C3=C(C)C(OC(=O)C(O)C(NC(=O)OC(C)(C)C)c4ccccc4)CC(O)(C(OC(=O)c4ccccc4)C21)C3(C)C (centres undefined) + CCn1c(-c2cc(N3CCN(C)CC3)cnc2C(C)OC)c2c3cc(ccc31)-c1csc(n1)CC(NC(=O)C1CC1C)C(=O)N1CCCC(N1)C(=O)OCC(C)(C)C2 in this assay?
active

Entry NC1c2ccccc2OC12CCN(c1cnc3c(N4CCCc5ncccc54)n[nH]c3n1)CC2 (centres undefined) + CCn1c(-c2cccnc2C(C)OC)c2c3cc(ccc31)N1CCOC(CC(NC(=O)C(C(C)C)N(C)C(=O)C3(F)CCN(C(=O)C#CC(C)(C)N(C)C)CC3)C(=O)N3CCCC(N3)C(=O)OCC(C)(C)C2)C1 : call = ?
inactive

Recorded test call requested for CC(Nc1ccc2c(c1)OCCn1cc(N3C(=O)OCC3C(F)F)nc1-2)C(N)=O (centres undefined) + CCn1c(-c2cccnc2C(C)OC)c2c3cc(ccc31)N1CCOC(CC(NC(=O)C(C(C)C)N(C)C(=O)C3(F)CCN(C(=O)C#CC(C)(C)N(C)C)CC3)C(=O)N3CCCC(N3)C(=O)OCC(C)(C)C2)C1
inactive

# lookup: test call for O=C(c1ccc(F)c(F)c1Nc1ccc(I)cc1F)N1CC(O)([C@@H]2CCCCN2)C1 + CCn1c(-c2cccnc2C(C)OC)c2c3cc(ccc31)N1CCOC(CC(NC(=O)C(C(C)C)N(C)C(=O)C3(F)CCN(C(=O)C#CC(C)(C)N(C)C)CC3)C(=O)N3CCCC(N3)C(=O)OCC(C)(C)C2)C1
inactive

Can you look up the reported call for CC(Nc1ccc2c(c1)OCCn1cc(N3C(=O)OCC3C(F)F)nc1-2)C(N)=O (centres undefined) + CCn1c(-c2cc(N3CCN(C)CC3)cnc2C(C)OC)c2c3cc(ccc31)-c1csc(n1)CC(NC(=O)C1CC1C)C(=O)N1CCCC(N1)C(=O)OCC(C)(C)C2 for me?
active

* * *

- Test system: 843782-103-R-J1-PDC complex spheroid viability
- test_protocol: Anticancer human tumor 843782-103-R-J1-PDC cell line growth inhibition [RAS];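 also: viability read after seven days of compound exposure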
- condition_details: second compound 0.316 µM; first compound 0.01 µM; active compounds read low
Measured viability, T/C, listed per entry for reference.
Give the value in % but do not write % after it.

# example entries with known answers
| molecule | reported_result |
| --- | --- |
| O=C(c1ccc(F)c(F)c1Nc1ccc(I)cc1F)N1CC(O)([C@@H]2CCCCN2)C1 + C=CC(=O)N1CCN(c2nc(OCC3CCCN3C)nc3c(F)c(-c4nc(N)cc(C)c4C(F)(F)F)c(Cl)cc23)C(C)C1 | 79.9 |
| CC(C)n1nc(-c2ccc3oc(N)nc3c2)c2c(N)ncnc21 + C#Cc1c(F)ccc2cc(O)cc(-c3ncc4c(N5CC6CCC(C5)N6)nc(OCC56CCCN5CC(F)C6)nc4c3F)c12 | 66.3 |
| CCN1CCN(Cc2ccc(Nc3ncc(F)c(-c4cc(F)c5nc(C)n(C(C)C)c5c4)n3)nc2)CC1 + C=CC(=O)N1CCN(c2nc(OCC3CCCN3C)nc3c(F)c(-c4nc(N)cc(C)c4C(F)(F)F)c(Cl)cc23)C(C)C1 | 86 |
| Nc1ccn(C2OC(CO)C(O)C2(F)F)c(=O)n1 (stereo unspecified) + C=CC(=O)N1CCN(c2nc(OCC3CCCN3C)nc3c(F)c(-c4nc(N)cc(C)c4C(F)(F)F)c(Cl)cc23)C(C)C1 | 82.8 |
| CCN1CCN(Cc2ccc(Nc3ncc(F)c(-c4cc(F)c5nc(C)n(C(C)C)c5c4)n3)nc2)CC1 + C#Cc1c(F)ccc2cc(O)cc(-c3ncc4c(N5CC6CCC(C5)N6)nc(OCC56CCCN5CC(F)C6)nc4c3F)c12 | 101 |

Here is another molecule to look at.
May I ask what viability, T/C has been recorded for Nc1ccn(C2OC(CO)C(O)C2(F)F)c(=O)n1 (stereo unspecified) + C#Cc1c(F)ccc2cc(O)cc(-c3ncc4c(N5CC6CCC(C5)N6)nc(OCC56CCCN5CC(F)C6)nc4c3F)c12 ?
103

* * *

- Tested on: 843782-103-R-J1-PDC complex spheroid viability
- test_protocol: Anticancer human tumor 843782-103-R-J1-PDC cell line growth inhibition [RAS];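 also: viability read after seven days of compound exposure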
- condition_details: second compound 0.000949 µM; first compound 0.01 µM; active compounds read low
Measured viability, T/C of individual entries
Please state the figure in %; there is no need to write the unit.

| compound | viability, T/C [%] |
| --- | --- |
| CC(C)n1nc(-c2ccc3oc(N)nc3c2)c2c(N)ncnc21 + CCn1c(-c2cc(N3CCN(C)CC3)cnc2C(C)OC)c2c3cc(ccc31)-c1csc(n1)CC(NC(=O)C1CC1C)C(=O)N1CCCC(N1)C(=O)OCC(C)(C)C2 | 38.6 |

Now examine the next entry.
Which measured viability, T/C value corresponds to CCN1CCN(Cc2ccc(Nc3ncc(F)c(-c4cc(F)c5nc(C)n(C(C)C)c5c4)n3)nc2)CC1 + CCn1c(-c2cccnc2C(C)OC)c2c3cc(ccc31)N1CCOC(CC(NC(=O)C(C(C)C)N(C)C(=O)C3(F)CCN(C(=O)C#CC(C)(C)N(C)C)CC3)C(=O)N3CCCC(N3)C(=O)OCC(C)(C)C2)C1 ?
73.8
